Where these numbers come from: the supplement of paper PMC7796163

The following compounds are listed with their measured CYP enzyme activity values.
# target_or_test_system: CYP2C8 (UniProt P10632)
# Sequence (P10632 whole entry): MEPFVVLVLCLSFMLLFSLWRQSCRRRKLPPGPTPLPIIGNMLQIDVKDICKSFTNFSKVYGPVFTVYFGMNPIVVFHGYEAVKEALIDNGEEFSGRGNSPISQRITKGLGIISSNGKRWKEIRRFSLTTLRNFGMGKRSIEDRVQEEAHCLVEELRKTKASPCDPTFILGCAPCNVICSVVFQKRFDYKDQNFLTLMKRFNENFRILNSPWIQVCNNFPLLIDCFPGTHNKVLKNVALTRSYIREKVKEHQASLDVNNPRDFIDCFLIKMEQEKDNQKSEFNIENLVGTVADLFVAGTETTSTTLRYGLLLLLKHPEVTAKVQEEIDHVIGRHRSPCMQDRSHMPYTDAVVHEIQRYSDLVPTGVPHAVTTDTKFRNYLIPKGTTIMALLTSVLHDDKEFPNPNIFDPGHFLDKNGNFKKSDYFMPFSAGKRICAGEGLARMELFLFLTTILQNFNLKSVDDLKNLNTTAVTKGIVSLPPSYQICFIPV
# assay_method_text: CYP enzyme activity (probe substrate metabolite formation) fold change vs solvent control; higher = stronger induction of CYP activity
# study_conditions: 1 µM; treatment time 12 h; HepaRG
// print number alone

c1ccc2c(c1)-c1cccc3c1c-2cc1ccccc13 [benzo[b]fluoranthene] ... 0.95

Query: What measured CYP enzyme activity goes with c1ccc2c(c1)cc1ccc3cccc4ccc2c1c34 [benzo[a]pyrene] ?
Response: 0.886

Query: Would you kindly share the measured CYP enzyme activity for c1ccc2cc3c(ccc4ccccc43)cc2c1 [benzo[a]anthracene] ?
Response: 0.978

----------
# target_or_test_system: CYP2C19 (UniProt P33261)
# Sequence (P33261 whole entry): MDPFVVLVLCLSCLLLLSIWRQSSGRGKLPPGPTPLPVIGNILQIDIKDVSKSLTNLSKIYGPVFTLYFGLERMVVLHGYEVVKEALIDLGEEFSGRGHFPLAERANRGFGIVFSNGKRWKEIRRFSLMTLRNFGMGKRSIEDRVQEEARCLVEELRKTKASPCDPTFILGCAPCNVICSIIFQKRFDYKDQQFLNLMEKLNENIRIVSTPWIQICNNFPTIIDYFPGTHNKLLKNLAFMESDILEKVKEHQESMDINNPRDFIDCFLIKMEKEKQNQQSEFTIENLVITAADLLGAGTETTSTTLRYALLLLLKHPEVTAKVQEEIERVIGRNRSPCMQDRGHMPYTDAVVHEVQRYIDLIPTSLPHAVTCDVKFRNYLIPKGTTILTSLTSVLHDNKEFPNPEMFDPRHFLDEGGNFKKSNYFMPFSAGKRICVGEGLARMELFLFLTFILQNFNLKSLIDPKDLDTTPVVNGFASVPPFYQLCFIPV
# assay_method_text: CYP enzyme activity (probe substrate metabolite formation) fold change vs solvent control; higher = stronger induction of CYP activity
# study_conditions: 1 µM; treatment time 12 h; HepaRG
experimental_readout: CYP enzyme activity
Give your answer as a number; write no unit.

Sample answers from the record:
c1ccc2c(c1)-c1cccc3cccc-2c13 [fluoranthene] ... 0.972
c1ccc2c3c(ccc2c1)-c1cccc2cccc-3c12 [benzo[j]fluoranthene] ... 0.86

Query: Which CYP enzyme activity reading was recorded for the compound c1ccc2c(c1)-c1cccc3c1c-2cc1ccccc13 [benzo[b]fluoranthene] ?
Response: 0.955

----------
# target_or_test_system: CYP2C9 (UniProt P11712)
# Sequence (P11712 whole entry): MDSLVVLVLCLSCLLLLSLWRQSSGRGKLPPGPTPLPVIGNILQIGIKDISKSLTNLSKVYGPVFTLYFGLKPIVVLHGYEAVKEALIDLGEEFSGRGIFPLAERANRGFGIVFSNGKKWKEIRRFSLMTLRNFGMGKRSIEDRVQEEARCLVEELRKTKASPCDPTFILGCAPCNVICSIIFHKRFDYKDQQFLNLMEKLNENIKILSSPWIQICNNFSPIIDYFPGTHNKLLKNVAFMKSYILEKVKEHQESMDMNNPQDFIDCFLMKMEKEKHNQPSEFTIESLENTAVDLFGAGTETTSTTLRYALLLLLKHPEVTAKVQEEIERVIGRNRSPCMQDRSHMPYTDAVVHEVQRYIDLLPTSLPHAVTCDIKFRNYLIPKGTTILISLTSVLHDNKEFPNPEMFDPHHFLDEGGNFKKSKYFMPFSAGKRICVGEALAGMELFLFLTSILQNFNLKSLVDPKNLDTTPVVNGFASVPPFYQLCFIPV
# assay_method_text: CYP enzyme activity (probe substrate metabolite formation) fold change vs solvent control; higher = stronger induction of CYP activity
# study_conditions: 10 µM; treatment time 24 h; HepaRG
The entries below are paired with their reported CYP enzyme activity.

c1ccc2c(c1)-c1cccc3cccc-2c13 ... 1.11
c1ccc2c(c1)-c1cccc3c1c-2cc1ccccc13 [benzo[b]fluoranthene] ... 0.842
c1ccc2c(c1)ccc1ccc3ccccc3c12 [benzo[c]phenanthrene] ... 1.1

Lab note: next molecule to report on.
Query: Which value of CYP enzyme activity has been reported for c1ccc2c(c1)cc1ccc3cccc4ccc2c1c34 [benzo[a]pyrene] in the records?
Response: 0.872

----------
Below, each entry is listed alongside its reported CYP enzyme activity.
# target_or_test_system: CYP3A4 (UniProt P08684)
# Sequence (P08684 whole entry): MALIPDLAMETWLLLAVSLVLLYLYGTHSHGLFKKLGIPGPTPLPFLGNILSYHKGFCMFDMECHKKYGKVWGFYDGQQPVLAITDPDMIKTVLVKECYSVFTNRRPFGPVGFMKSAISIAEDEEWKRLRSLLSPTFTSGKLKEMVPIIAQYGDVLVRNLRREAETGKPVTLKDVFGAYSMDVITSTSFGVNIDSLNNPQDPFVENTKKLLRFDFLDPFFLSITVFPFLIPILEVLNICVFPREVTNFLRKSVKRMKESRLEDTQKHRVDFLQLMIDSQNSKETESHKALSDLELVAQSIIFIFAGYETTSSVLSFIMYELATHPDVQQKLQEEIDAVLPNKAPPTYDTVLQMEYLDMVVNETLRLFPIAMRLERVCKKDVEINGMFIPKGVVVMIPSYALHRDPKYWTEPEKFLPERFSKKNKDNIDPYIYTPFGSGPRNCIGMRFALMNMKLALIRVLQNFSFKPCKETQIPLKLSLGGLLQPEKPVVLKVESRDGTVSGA
# assay_method_text: CYP enzyme activity (probe substrate metabolite formation) fold change vs solvent control; higher = stronger induction of CYP activity
# study_conditions: 1 µM; treatment time 48 h; HepaRG
Could you keep your reply to the number by itself?

Example entries and their recorded answers appear below.
c1ccc2cc3c(ccc4ccccc43)cc2c1 [benzo[a]anthracene] ... 0.702
c1ccc2c3c(ccc2c1)-c1cccc2cccc-3c12 [benzo[j]fluoranthene] ... 0.666
c1ccc2cc3c(cc2c1)-c1cccc2cccc-3c12 [benzo[k]fluoranthene] ... 0.544

Consider the additional molecule presented here.
Query: Which value of CYP enzyme activity has been reported for c1ccc2c(c1)ccc1ccccc12 [phenanthrene] in the records?
Response: 0.844

----------
# target_or_test_system: CYP2D6 (UniProt P10635)
# Sequence (P10635 whole entry): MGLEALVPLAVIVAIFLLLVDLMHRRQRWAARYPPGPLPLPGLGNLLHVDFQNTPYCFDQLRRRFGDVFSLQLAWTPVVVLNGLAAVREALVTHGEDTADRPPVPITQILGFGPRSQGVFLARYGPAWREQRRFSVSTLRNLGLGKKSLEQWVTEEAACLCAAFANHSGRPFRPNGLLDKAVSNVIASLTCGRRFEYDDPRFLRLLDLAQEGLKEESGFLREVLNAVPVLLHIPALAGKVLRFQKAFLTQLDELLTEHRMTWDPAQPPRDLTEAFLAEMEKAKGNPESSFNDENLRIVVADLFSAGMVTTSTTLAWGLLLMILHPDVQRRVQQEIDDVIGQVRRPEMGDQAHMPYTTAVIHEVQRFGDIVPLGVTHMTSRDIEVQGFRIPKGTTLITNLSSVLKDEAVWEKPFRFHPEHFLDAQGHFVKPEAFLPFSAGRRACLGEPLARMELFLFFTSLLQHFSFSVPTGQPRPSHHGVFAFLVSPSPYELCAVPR
# assay_method_text: CYP enzyme activity (probe substrate metabolite formation) fold change vs solvent control; higher = stronger induction of CYP activity
# study_conditions: 5 µM; treatment time 12 h; HepaRG
experimental_readout: CYP enzyme activity
No unit in the answer, please; the number alone is enough.

c1ccc2c(c1)ccc1ccccc12 [phenanthrene] ... 1.08

Query: # get_value(readout='CYP enzyme activity', item= c1ccc2c(c1)-c1cccc3cccc-2c13 [fluoranthene] )
Response: 1.16

Query: Entry c1ccc2c(c1)ccc1ccc3ccccc3c12 [benzo[c]phenanthrene] has what CYP enzyme activity?
Response: 0.992

Query: Name the recorded CYP enzyme activity for c1ccc2cc3c(ccc4ccccc43)cc2c1 [benzo[a]anthracene] .
Response: 1.66

Query: Entry c1cc2ccc3cccc4ccc(c1)c2c34 [pyrene] has what CYP enzyme activity?
Response: 1.07

Query: If you can, please state the reported CYP enzyme activity value of c1ccc2c(c1)cc1ccc3cccc4c5ccccc5c2c1c34 [dibenzo[a,l]pyrene] .
Response: 1.28
